Sequence of the target: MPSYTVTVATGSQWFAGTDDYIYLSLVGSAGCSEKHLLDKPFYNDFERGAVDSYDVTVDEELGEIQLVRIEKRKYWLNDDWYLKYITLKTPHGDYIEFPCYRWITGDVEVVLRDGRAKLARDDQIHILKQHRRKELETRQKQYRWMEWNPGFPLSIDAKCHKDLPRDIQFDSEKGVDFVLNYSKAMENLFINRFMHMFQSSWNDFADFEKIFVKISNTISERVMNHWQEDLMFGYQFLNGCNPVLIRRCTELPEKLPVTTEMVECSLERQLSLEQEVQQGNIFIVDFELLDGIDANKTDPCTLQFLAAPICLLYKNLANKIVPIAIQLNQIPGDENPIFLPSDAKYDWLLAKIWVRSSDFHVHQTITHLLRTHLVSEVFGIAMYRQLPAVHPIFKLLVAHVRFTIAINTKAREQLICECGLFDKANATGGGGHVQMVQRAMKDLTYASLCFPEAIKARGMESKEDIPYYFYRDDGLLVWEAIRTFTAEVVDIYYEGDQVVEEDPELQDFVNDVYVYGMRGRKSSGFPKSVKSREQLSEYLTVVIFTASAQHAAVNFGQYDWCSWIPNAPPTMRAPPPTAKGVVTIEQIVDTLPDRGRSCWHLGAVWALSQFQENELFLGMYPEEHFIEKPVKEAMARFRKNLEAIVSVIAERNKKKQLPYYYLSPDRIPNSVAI
pIC50: −log10 of the molar value.
Parameter threshold = 4. Response is True when pIC50 meets or exceeds it, else False.

Decide: pIC50 of `COc1ccc2c(c1)c1c(n2C(=O)c2cccc(F)c2)CCN(CCCOc2cc(F)cc(C3(OC)CCOCC3)c2)C1` >= 4?
True

Queued: `COc1ccc2c(c1)c1c(n2C(=O)c2ccc(Br)cc2)CCN(CCCOc2cc(F)cc(C3(OC)CCOCC3)c2)C1`
True

Queued: `COc1ccc2c(c1)c1c(n2C(=O)c2c(Cl)cc(Cl)cc2Cl)CCN(CCCOc2cc(F)cc(C3(OC)CCOCC3)c2)C1`
True

Queued: `COC1(c2cc(F)cc(OCCCN3CCc4c(c5cc(F)ccc5n4Cc4ccc(S(C)(=O)=O)cc4)C3)c2)CCOCC1`
True

Queued: `COc1ccc2c(c1)c1c(n2C(=O)c2ccc(F)cc2)CCN(CCCOc2cc(F)cc(C3(OC)CCOCC3)c2)C1`
True

Queued: `COC1(c2cc(F)cc(OCCCN3CCc4c(c5ccccc5n4C(=O)c4ccccc4)C3)c2)CCOCC1`
False

---

# Test system: L1210
# Method Description: Cytotoxicity against mouse L1210 cells after 72 hrs by MTT assay
# Type: functional, cell-based
# Experimental Parameters: L1210, 72 h
pIC50: −log10 of the molar value.
Parameter threshold = 5. Response is Yes when pIC50 meets or exceeds it, else No.

Decide: pIC50 of `COC1(c2cc(F)cc(OCCCN3CCc4c(c5cc(S(C)(=O)=O)ccc5n4CCCOc4cc(F)cc(C5(OC)CCOCC5)c4)C3)c2)CCOCC1` >= 5?
Yes

Queued: `COc1ccc2c(c1)c1c(n2C(=O)c2ccc(S(=O)(=O)/N=C/N(C)C)cc2)CCN(CCCOc2cc(F)cc(C3(OC)CCOCC3)c2)C1`
Yes

Queued: `Cc1ccc(-c2cc(C(F)(F)F)nn2-c2ccc(S(N)(=O)=O)cc2)cc1`
No

Queued: `COc1ccc2c(c1)c1c(n2Cc2ccc(S(C)(=O)=O)cc2)CCN(CCCOc2cc(F)cc(C3(OC)CCOCC3)c2)C1`
Yes

Provenance of the data: ChEMBL document CHEMBL1165918
